System: U251 CNS
method notes: NCI tumour cell line growth inhibition, 48 h
Quick reference: TGI of the listed items.
readout type: TGI

COC(=O)c1nn(C(=N)c2ccc(Cl)cc2)c2c1CCCCC2 | > 100 µM
O=C(Nc1ccccc1C(=O)Nc1nccs1)c1ccccc1 | > 100 µM
C=Cc1cnc([N+](=O)[O-])n1C | > 100 µM
CC(C)c1nccn1Cc1ccc(Cl)cc1Cl | > 100 µM
CCOC(=O)NC(=O)c1cn(C2OC(CO)C(O)C2O)c(=O)[nH]c1=O (stereo unspecified) | > 100 µM
Cc1nc2sc(C(=O)Nc3cccc(Cl)c3C)c(N)c2cc1C(C)O (stereo unspecified) | > 39.2 µM

The measured values listed here are drawn from PubChem BioAssay (NCI).
